The following binders are shown together with reported cAMP EC50 values.
- measured-on: T1, mouse GIP receptor (mouse, UniProt Q0P543 19-460)
- T1 sequence (looked up): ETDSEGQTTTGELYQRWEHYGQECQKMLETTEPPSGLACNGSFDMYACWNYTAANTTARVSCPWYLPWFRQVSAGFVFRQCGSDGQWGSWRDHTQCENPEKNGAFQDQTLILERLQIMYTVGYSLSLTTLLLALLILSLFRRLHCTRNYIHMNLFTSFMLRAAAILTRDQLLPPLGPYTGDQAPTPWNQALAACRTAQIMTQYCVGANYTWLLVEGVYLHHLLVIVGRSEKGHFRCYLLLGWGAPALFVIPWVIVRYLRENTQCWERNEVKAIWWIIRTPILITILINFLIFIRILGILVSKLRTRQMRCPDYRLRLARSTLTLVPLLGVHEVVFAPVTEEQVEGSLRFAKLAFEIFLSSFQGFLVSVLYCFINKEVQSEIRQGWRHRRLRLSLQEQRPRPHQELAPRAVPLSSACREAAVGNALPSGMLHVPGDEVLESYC
- experiment: cell-based or functional assay
Entry rule: numbers only, all in nM.

Reference set, count: 5
>>> print(df.to_string())
                                     binder  number
0  IP257 (Fc fusion) SEGTFTSDYSKLLEEEAVRLFIEWLVKGPGGGGGSGGGGSGGGGSGGGGSATHTCPPCPAPEF    4300
1  IP372 (Fc fusion) YSEGTFTSDYSIYLDEEAVRLFIEWLLAGGGGGGGSGGGGSGGGGSGGGGSACPPC     450
2  IP317 (Fc fusion) YSEGTFTSDVSSYLEKQAIDEFIAWLLKGGAAAGGSGSTASSGSGSATGGGGAATHTCPPC      86
3  IP292 (Fc fusion) YSEGTFTSDYSKLLEEEAVRCFIEWLVKGGPGGGAPPCGGGGGGGGGGGGGGGGGGGACPPC      66
4  IP222 (Fc fusion) YSEGTFTSDYSKLLEEEAVRLFIEWLKNGGPSSGAPPPSAAAGGSGSTASSGSGSATGGGGAATHTCPPCPAPEF     160

Query string: Entry IP245 (Fc fusion) YSEGTFTSDYSIAMDEEAVRLFIEWLVKGPAAAGGSGSTASSGSGSATGGGGAATHTCPPCPAPEF has what cAMP EC50?
Result string: 190
